# inhibition of growth at 1 µM per record follows
Test system: A-375
Experiment: Cytotoxicity against human A375 cells at 1 uM after 72 hrs by MTT assay
Assay type: functional
Details: A-375, 72 h, read-out: GI

| test_smiles | inhibition of growth at 1 µM, % |
| --- | --- |
| COC(=O)O[C@H]1C[C@H]2OC[C@@]2(OC(C)=O)[C@H]2[C@H](OC(=O)c3ccccc3)[C@]3(O)C[C@H](OC(=O)[C@H](O)[C@@H](NC(=O)c4ccccc4)c4ccccc4)C(C)=C([C@@H](OC)C(=O)[C@]12C)C3(C)C | 94 |
| CO[C@H]1C(=O)[C@]2(C)[C@@H](OC(=O)N(C)C)C[C@H]3OC[C@@]3(OC(C)=O)[C@H]2[C@H](OC(=O)c2ccccc2)[C@]23OC(=O)O[C@H]2[C@H](OC(=O)[C@H](O)[C@@H](NC(=O)OC(C)(C)C)c2ccccc2)C(C)=C1C3(C)C | 93.1 |
| CO[C@H]1C(=O)[C@]2(C)CC[C@H]3OC[C@@]3(OC(C)=O)[C@H]2[C@H](OC(=O)c2ccccc2)[C@]23OC(=O)O[C@H]2[C@H](OC(=O)[C@H](O)[C@@H](NC(=O)OC(C)(C)C)c2ccccc2)C(C)=C1C3(C)C | 94.4 |

* * *

# inhibition of growth at 1 µM per record follows
System: A2780
Assay: Cytotoxicity against human A2780 cells at 1 uM after 72 hrs by MTT assay
Assay type: functional
Settings: A2780, 72 h, read-out: GI

| test_smiles | output_unit | inhibition of growth at 1 µM |
| --- | --- | --- |
| COC(=O)O[C@H]1C(=O)[C@]2(C)[C@@H](OC)C[C@H]3OC[C@@]3(OC(C)=O)[C@H]2[C@H](OC(=O)c2ccccc2)[C@]2(O)C[C@H](OC(=O)[C@H](O)[C@@H](NC(=O)OC(C)(C)C)c3ccccc3)C(C)=C1C2(C)C | % | 94.1 |
| COC(=O)O[C@H]1C(=O)[C@]2(C)[C@@H](OC)C[C@H]3OC[C@@]3(OC(C)=O)[C@H]2[C@H](OC(=O)c2ccccc2)[C@]2(O)C[C@H](OC(=O)[C@H](O)[C@@H](NC(=O)c3ccccc3)c3ccccc3)C(C)=C1C2(C)C | % | 95.8 |
| CO[C@H]1C(=O)[C@]2(C)[C@@H](OC)C[C@H]3OC[C@@]3(OC(C)=O)[C@H]2[C@H](OC(=O)c2ccccc2)[C@]2(O)C[C@H](OC(=O)[C@H](O)[C@@H](NC(=O)c3ccccc3)c3ccccc3)C(C)=C1C2(C)C | % | 95.2 |
| CO[C@H]1C(=O)[C@]2(C)[C@@H](OC)C[C@H]3OC[C@@]3(OC(C)=O)[C@H]2[C@H](OC(=O)c2ccccc2)[C@]2(O)C[C@H](OC(=O)[C@H](O)[C@@H](NC(=O)OC(C)(C)C)c3ccccc3)C(C)=C1C2(C)C | % | 93.8 |
| CO[C@H]1C(=O)[C@]2(C)[C@@H](OC(=O)N(C)C)C[C@H]3OC[C@@]3(OC(C)=O)[C@H]2[C@H](OC(=O)c2ccccc2)[C@]23OC(=O)O[C@H]2[C@H](OC(=O)[C@H](O)[C@@H](NC(=O)OC(C)(C)C)c2ccccc2)C(C)=C1C3(C)C | % | 95.9 |
| CO[C@H]1C[C@H]2OC[C@@]2(OC(C)=O)[C@H]2[C@H](OC(=O)c3ccccc3)[C@]3(O)C[C@H](OC(=O)[C@H](O)[C@@H](NC(=O)c4ccccc4)c4ccccc4)C(C)=C([C@@H](OC(=O)N(C)C)C(=O)[C@]12C)C3(C)C | % | 96.3 |
| COC(=O)O[C@H]1C[C@H]2OC[C@@]2(OC(C)=O)[C@H]2[C@H](OC(=O)c3ccccc3)[C@]3(O)C[C@H](OC(=O)[C@H](O)[C@@H](NC(=O)OC(C)(C)C)c4ccccc4)C(C)=C([C@@H](OC)C(=O)[C@]12C)C3(C)C | % | 96.4 |
| CO[C@H]1C(=O)[C@]2(C)CC[C@H]3OC[C@@]3(OC(C)=O)[C@H]2[C@H](OC(=O)c2ccccc2)[C@]23OC(=O)O[C@H]2[C@H](OC(=O)[C@H](O)[C@@H](NC(=O)OC(C)(C)C)c2ccccc2)C(C)=C1C3(C)C | % | 96 |

* * *

Test: Efflux ratio of apparent permeability from basolateral to apical side over apical to basolateral side in wild-type MDCK cells at 5 uM after 90 mins
Type: ADME, cell-based, Canis lupus familiaris
Conditions: dog
metric: efflux ratio at 1.5 h, 5 µM

| test_smiles | value |
| --- | --- |
| CO[C@H]1C[C@H]2OC[C@@]2(OC(C)=O)[C@H]2[C@H](OC(=O)c3ccccc3)[C@]34OC(=O)O[C@H]3[C@H](OC(=O)[C@H](O)[C@@H](NC(=O)OC(C)(C)C)c3ccccc3)C(C)=C([C@@H](OC(=O)N(C)C)C(=O)[C@]12C)C4(C)C | 2.13 |
| CO[C@H]1C(=O)[C@]2(C)[C@@H](OC(=O)N(C)C)C[C@H]3OC[C@@]3(OC(C)=O)[C@H]2[C@H](OC(=O)c2ccccc2)[C@]2(O)C[C@H](OC(=O)[C@H](O)[C@@H](NC(=O)OC(C)(C)C)c3ccccc3)C(C)=C1C2(C)C | 2.28 |
| CC(=O)O[C@H]1C(=O)[C@@]2(C)[C@H]([C@H](OC(=O)c3ccccc3)[C@]3(O)C[C@H](OC(=O)[C@H](O)[C@@H](NC(=O)c4ccccc4)c4ccccc4)C(C)=C1C3(C)C)[C@]1(OC(C)=O)CO[C@@H]1C[C@@H]2O | 344 |
| C[C@H]1O[C@@H](O[C@H]2[C@@H](O)C[C@H](O[C@H]3[C@@H](O)C[C@H](O[C@H]4CC[C@@]5(C)[C@H](CC[C@@H]6[C@@H]5C[C@@H](O)[C@]5(C)[C@@H](C7=CC(=O)OC7)CC[C@]65O)C4)O[C@@H]3C)O[C@@H]2C)C[C@H](O)[C@@H]1O | 22.7 |

* * *

# inhibition of growth at 1 µM per record follows
Tested on: MCF7
Assay: Cytotoxicity against human MCF7 cells at 1 uM after 72 hrs by MTT assay
Type: functional
Conditions: MCF7, 72 h, read-out: GI

| compound | output_unit | inhibition of growth at 1 µM |
| --- | --- | --- |
| CO[C@H]1C[C@H]2OC[C@@]2(OC(C)=O)[C@H]2[C@H](OC(=O)c3ccccc3)[C@]3(O)C[C@H](OC(=O)[C@H](O)[C@@H](NC(=O)c4ccccc4)c4ccccc4)C(C)=C([C@@H](OC(=O)N(C)C)C(=O)[C@]12C)C3(C)C | % | 85.7 |
| CO[C@H]1C(=O)[C@]2(C)[C@@H](OC)C[C@H]3OC[C@@]3(OC(C)=O)[C@H]2[C@H](OC(=O)c2ccccc2)[C@]2(O)C[C@H](OC(=O)[C@H](O)[C@@H](NC(=O)OC(C)(C)C)c3ccccc3)C(C)=C1C2(C)C [CABAZITAXEL] | % | 88.5 |
| COC(=O)O[C@H]1C(=O)[C@]2(C)[C@@H](OC)C[C@H]3OC[C@@]3(OC(C)=O)[C@H]2[C@H](OC(=O)c2ccccc2)[C@]2(O)C[C@H](OC(=O)[C@H](O)[C@@H](NC(=O)c3ccccc3)c3ccccc3)C(C)=C1C2(C)C | % | 95.5 |
| CO[C@H]1C(=O)[C@]2(C)[C@@H](OC(=O)N(C)C)C[C@H]3OC[C@@]3(OC(C)=O)[C@H]2[C@H](OC(=O)c2ccccc2)[C@]2(O)C[C@H](OC(=O)[C@H](O)[C@@H](NC(=O)c3ccccc3)c3ccccc3)C(C)=C1C2(C)C | % | 90.8 |
| CO[C@H]1C(=O)[C@]2(C)[C@@H](OC(=O)N(C)C)C[C@H]3OC[C@@]3(OC(C)=O)[C@H]2[C@H](OC(=O)c2ccccc2)[C@]23OC(=O)O[C@H]2[C@H](OC(=O)[C@H](O)[C@@H](NC(=O)OC(C)(C)C)c2ccccc2)C(C)=C1C3(C)C | % | 84.7 |
| CO[C@H]1C(=O)[C@]2(C)[C@@H](OC)C[C@H]3OC[C@@]3(OC(C)=O)[C@H]2[C@H](OC(=O)c2ccccc2)[C@]2(O)C[C@H](OC(=O)[C@H](O)[C@@H](NC(=O)c3ccccc3)c3ccccc3)C(C)=C1C2(C)C | % | 92.1 |
| CO[C@H]1C(=O)[C@]2(C)CC[C@H]3OC[C@@]3(OC(C)=O)[C@H]2[C@H](OC(=O)c2ccccc2)[C@]23OC(=O)O[C@H]2[C@H](OC(=O)[C@H](O)[C@@H](NC(=O)OC(C)(C)C)c2ccccc2)C(C)=C1C3(C)C | % | 86.3 |
| COC(=O)O[C@H]1C(=O)[C@]2(C)[C@@H](OC)C[C@H]3OC[C@@]3(OC(C)=O)[C@H]2[C@H](OC(=O)c2ccccc2)[C@]2(O)C[C@H](OC(=O)[C@H](O)[C@@H](NC(=O)OC(C)(C)C)c3ccccc3)C(C)=C1C2(C)C | % | 95.3 |
| CO[C@H]1C(=O)[C@]2(C)[C@@H](OC)C[C@H]3OC[C@@]3(OC(C)=O)[C@H]2[C@H](OC(=O)c2ccccc2)[C@]23OC(=O)O[C@H]2[C@H](OC(=O)[C@H](O)[C@@H](NC(=O)c2ccccc2)c2ccccc2)C(C)=C1C3(C)C | % | 96 |
| CC(=O)O[C@H]1C(=O)[C@@]2(C)[C@H]([C@H](OC(=O)c3ccccc3)[C@]34OC(=O)O[C@H]3[C@H](OC(=O)[C@H](O)[C@H](CC(C)C)NC(=O)OC(C)(C)C)C(C)=C1C4(C)C)[C@]1(OC(C)=O)CO[C@@H]1C[C@@H]2O [ORTATAXEL] | % | 88.7 |
| COC(=O)O[C@H]1C[C@H]2OC[C@@]2(OC(C)=O)[C@H]2[C@H](OC(=O)c3ccccc3)[C@]3(O)C[C@H](OC(=O)[C@H](O)[C@@H](NC(=O)OC(C)(C)C)c4ccccc4)C(C)=C([C@@H](OC)C(=O)[C@]12C)C3(C)C | % | 103 |
| CO[C@H]1C(=O)[C@@]2(C)[C@H]([C@H](OC(=O)c3ccccc3)[C@]34OC(=O)O[C@H]3[C@H](OC(=O)[C@H](O)[C@@H](NC(=O)OC(C)(C)C)c3ccccc3)C(C)=C1C4(C)C)[C@]1(OC(C)=O)CO[C@@H]1C[C@@H]2O | % | 87.1 |
